B1: VH:VL chains; a variant is named by its letters at X, in order (parent)
chain 1: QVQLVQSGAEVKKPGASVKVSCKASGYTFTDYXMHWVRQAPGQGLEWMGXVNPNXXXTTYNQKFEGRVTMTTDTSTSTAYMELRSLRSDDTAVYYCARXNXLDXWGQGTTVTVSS
chain 2: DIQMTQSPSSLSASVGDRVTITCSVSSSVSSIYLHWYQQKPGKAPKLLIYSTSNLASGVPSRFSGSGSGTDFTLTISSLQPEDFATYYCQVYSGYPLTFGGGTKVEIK

- Variants of: B1
- run-description: yeast display scFab, FACS + sequencing
- test-settings: with MET
The other results are listed elsewhere or left out. No count for the full screen is at hand.

| var | antigen binding call |
| --- | --- |
| FATTDSVD | no binding |
| ARGGDDGA | no binding |
| FRGTGFVD | binds |
| FRRGSSAA | binds |
| VAEKGAGD | no binding |
| VEGTSSSV | no binding |
| YETGNVWF | no binding |
| AGGGNDVY | no binding |
| YRRRGAAA | binds |
| YREKGAGD | binds |
| YERTTDLS | no binding |
| FRTGDSLV | binds |
| YKGKGSWD | binds |
| VTGEDDAV | no binding |
| YKRESAAV | binds |
| ATAGSASD | no binding |
| YRAGSAAA | binds |
| YRGAGSGV | binds |
| DEGRGSWA | no binding |
| YKAGDDGA | no binding |
| YKGADFGD | no binding |
| AARADSGY | no binding |
| FRTGDDWV | no binding |
| YERESAAV | no binding |
| FKGKGSWD | binds |
| YEAGTAVA | no binding |
| FGKEDSVD | no binding |
| YRRRGYSS | binds |
| YRRGGAWS | binds |
| DTGANDWV | no binding |
| FRRGGSAA | binds |
| YRGAGAGV | binds |
| DAEKGAWA | no binding |
| VTGEDDGD | no binding |
| YKRGSASD | binds |
| VRGKGAWA | binds |
| YKRRDASD | no binding |
| YKGKDSSV | binds |
| VKARNDLV | no binding |
| YATRGAAA | no binding |
| SEEEGAGD | no binding |
| VKGRGFAA | no binding |
| YRGKSSWA | binds |
| ATTKSAVA | no binding |
| DTREGAVV | no binding |
| AARADSWV | no binding |
| ATTKSAGD | no binding |
| VTGEADAS | no binding |
| YRTRGAWA | binds |
| DAAKNDAV | no binding |
| VKGRGAWA | binds |
| VEGAASWV | no binding |
| FKRKNSAA | no binding |
| DAKENDVA | no binding |
| YRAESAAA | binds |
| VKTGGSWA | no binding |
| FKGEGAGV | no binding |
| SEEGTAGA | no binding |
| VKAGSDVA | no binding |
| YRRRGAWS | binds |
| STGGNDAD | no binding |
| VKGRGDAA | no binding |
| VTGTGAGV | no binding |
| VRTRGYLA | no binding |
| SRATAYSD | no binding |
| YKEKGAVD | no binding |
| YGGRGDAD | no binding |
| VKEGGDGA | no binding |
| SETTDDAV | no binding |
| YKGRGYAD | no binding |
| VEGGGAWA | no binding |
| AARADAVA | no binding |
| YRGTGAGV | binds |
| FAGTGSWD | no binding |
| YEGTGSWA | no binding |
| YKGRGYGD | binds |
| DTGTGAGV | no binding |
| YRAKGAGD | binds |
| YRGAGAWV | binds |
| FRAGGAWV | binds |
| YAGKDDWV | no binding |
| YRRRGSWS | binds |
| FRGTSFGD chain 1 T58I | no binding |
| YAGTGFVD | no binding |
| AARADDAA | no binding |
| YKGKGFGD | no binding |
| DEGGGDGA | no binding |
| YAGRGDAD | no binding |
| VATGDSLV | no binding |
| DAEGDAGD | no binding |
| YERRGSWS | no binding |

Each recorded value in this set is attributed to the emibetuzumab library of Makowski et al. (2022).
